# Measured on: T1, recombinant human CD137 (Homo sapiens, UniProt Q07011)
# T1 construct: made in house; host or cells: FreeStyle293F
# Test: Biacore T200 SPR affinity of Dual-Fab antibodies to human CD137
# Format: binding
# Condition summary: 37 degrees C, pH 7.4

Molecule	CD137 Kon (M⁻¹ s⁻¹)
H1649L0581: affinity matured Dual-Fab variant, VH SEQ ID NO 97, VL SEQ ID NO 143 (antibody, V domains shown) VH: QVQLVESGGGLVQPGRSLRLSCAASGFVFSNVWFHWVRQAPGKGLEWVAQIKDKYNAYADYYAPSVKERFTISRDDSKNSIYLQMNSLKTEDTAVYYCHYVHYASASTLLPAEGVDAWGQGTTVTVSS VL: DIVMTQSPLSLPVTPGEPASISCQPSQEVVHMNRNTYLHWYQQKPGQAPRLLIYKVSNRFPGVPDRFSGSGSGTDFTLKISRVEAEDVGVYYCAQGTSHPFTFGQGTKLEIK	12900
H2594L0581: affinity matured Dual-Fab variant, VH SEQ ID NO 102, VL SEQ ID NO 143 (antibody, V domains shown) VH: QVQLVESGGGLVQPGRSLRLSCAASGFKFSNVWFHWVRQAPGKGLEWVAQIKDYYNAYAGYYHPSVKGRFTISRDDSKNSIYLQMNSLKTEDTAVYYCHYVHYAAASQLLPAEGVDAWGQGTTVTVSS VL: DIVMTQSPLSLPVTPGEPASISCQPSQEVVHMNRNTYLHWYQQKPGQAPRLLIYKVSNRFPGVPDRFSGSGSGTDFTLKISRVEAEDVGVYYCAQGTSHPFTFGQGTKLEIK	20900
H1571L0581: affinity matured Dual-Fab variant, VH SEQ ID NO 93, VL SEQ ID NO 143 (antibody, V domains shown) VH: QVQLVESGGGLVQPGRSLRLSCAASGFKFSNVWFHWVRQAPGKGLEWVAQIKDKYNAYATYYAPSVKGRFTISRDDSKNSIYLQMNSLKTEDTAVYYCHYVHYASASTLLPAFGVDAWGQGTTVTVSS VL: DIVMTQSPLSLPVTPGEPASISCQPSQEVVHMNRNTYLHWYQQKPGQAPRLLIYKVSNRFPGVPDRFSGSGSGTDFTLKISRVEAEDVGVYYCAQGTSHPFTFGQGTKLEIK	12100
H183L072: parental Dual-Fab (CD3/CD137), VH SEQ ID NO 90, VL SEQ ID NO 142 (antibody, V domains shown) VH: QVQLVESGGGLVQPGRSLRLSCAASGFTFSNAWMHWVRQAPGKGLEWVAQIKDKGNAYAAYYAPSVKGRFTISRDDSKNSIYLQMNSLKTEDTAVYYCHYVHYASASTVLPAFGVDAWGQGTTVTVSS VL: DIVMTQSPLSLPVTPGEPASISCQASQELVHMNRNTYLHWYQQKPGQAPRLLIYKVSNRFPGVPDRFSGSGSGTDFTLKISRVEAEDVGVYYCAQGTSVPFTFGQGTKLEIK	3470
H1610L0581: affinity matured Dual-Fab variant, VH SEQ ID NO 94, VL SEQ ID NO 143 (antibody, V domains shown) VH: QVQLVESGGGLVQPGRSLRLSCAASGFVFSNVWMHWVRQAPGKGLEWVAQIKDKWNAYAAYYAPSVKGRFTISRDDSKNSIYLQMNSLKTEDTAVYYCHYIHYASASTLLPAEGIDAWGQGTTVTVSS VL: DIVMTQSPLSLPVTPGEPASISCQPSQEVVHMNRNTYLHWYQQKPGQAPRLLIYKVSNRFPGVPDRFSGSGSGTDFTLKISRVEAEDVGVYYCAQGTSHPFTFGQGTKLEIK	10700
H1649L0943: affinity matured Dual-Fab variant, VH SEQ ID NO 97, VL SEQ ID NO 146 (antibody, V domains shown) VH: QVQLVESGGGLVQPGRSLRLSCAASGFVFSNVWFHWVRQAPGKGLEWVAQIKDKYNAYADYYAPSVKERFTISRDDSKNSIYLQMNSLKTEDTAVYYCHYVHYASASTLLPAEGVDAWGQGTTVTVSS VL: DIVMTQSPLSLPVTPGEPASISCQPSEEVVHMNRNTYLHWYQQKPGQAPRLLIYKVSNLFPGVPDRFSGSGSGTDFTLKISRVEAEDVGVYYCAQGTHHPFTFGQGTKLEIK	14300
H1673L0943: affinity matured Dual-Fab variant, VH SEQ ID NO 100, VL SEQ ID NO 146 (antibody, V domains shown) VH: QVQLVESGGGLVQPGRSLRLSCAASGFVFSNVWFHWVRQAPGKGLEWVAQIKDKWNAYADYYAPSVKERFTISRDDSKNSIYLQMNSLKTEDTAVYYCHYIHYASASTLLPAEGIDAWGQGTTVTVSS VL: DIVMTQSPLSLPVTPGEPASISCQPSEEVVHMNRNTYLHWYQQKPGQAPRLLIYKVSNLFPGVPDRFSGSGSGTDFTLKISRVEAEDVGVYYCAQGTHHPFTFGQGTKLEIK	12200
H1673L0581: affinity matured Dual-Fab variant, VH SEQ ID NO 100, VL SEQ ID NO 143 (antibody, V domains shown) VH: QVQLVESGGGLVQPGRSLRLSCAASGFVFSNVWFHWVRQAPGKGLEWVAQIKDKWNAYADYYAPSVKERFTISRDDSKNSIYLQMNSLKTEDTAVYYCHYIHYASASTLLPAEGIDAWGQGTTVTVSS VL: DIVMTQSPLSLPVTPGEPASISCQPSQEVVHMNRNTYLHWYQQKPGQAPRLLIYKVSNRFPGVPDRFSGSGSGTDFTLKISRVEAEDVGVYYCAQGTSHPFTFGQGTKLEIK	11900
